Listing of recorded self-cleavage by entry.
B1: HDV Ribozyme (parent)
chain: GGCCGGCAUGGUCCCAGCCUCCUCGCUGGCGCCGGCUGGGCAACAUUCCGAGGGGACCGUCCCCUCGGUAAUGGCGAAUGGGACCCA

# Variants of: B1
# EXPERIMENTAL DETAILS: self-cleavage, relative activity (ratio to wild type); higher = more cleavage; co-transcriptional

[[record]]
primary_sequence = "GGCCGGCAUGGUCCGAGCCUCCUCGCUGGCGCCGGCUGGGCAACAUUCCGAGGGGAUCGUCCCCUCGGUAAUGGCGAAUGGGACCCA"
property_label = "self-cleavage"
result = 0.554

[[record]]
primary_sequence = "GGCCGGCAUGGUCCCAGCCUCCUCGCUGGCGCCGGCUGGGCAACAUUCCGAGGGGACCGUCCCCUCCGUAAUGGCGAAUGGGAUCCA"
property_label = "self-cleavage"
result = 0.523

[[record]]
primary_sequence = "GGCCGGCAUGGUCCAAGCGUCCUCGCUGGCGCCGGCUGGGCAACAUUCCGAGGGGACCGUCCCCUCGGUAAUGGCGAAUGGGACCCA"
property_label = "self-cleavage"
result = 0.0519

[[record]]
primary_sequence = "GGCCGGCAUGGUCCCGGCCUGCUCGCUGGCGCCGGCUGGGCAACAUUCCGAGGGGACCGUCCCCUCGGUAAUGGCGAAUGGGACCCA"
property_label = "self-cleavage"
result = 0.0875

[[record]]
primary_sequence = "GGCCGGCAUGGUCCCAGCCUCCUCGCUGGCGCCGGCUGGGCAACAUCCCGAGCGGACCGUCCCCUCGGUAAUGGCGAAUGGGACCCA"
property_label = "self-cleavage"
result = 0.653


Provide one value: measured self-cleavage of "GGCCGGCAUAGUCCCAGCCUCCUCGCUGGCGCCGGCUGAGCAACAUUCCGAGGGGACCGUCCCCUCGGUAAUGGCGAAUGGGACCCA"
0.321

Find the measured self-cleavage of "GGCCGGCAUGGUCCCAGCCUCCUCGCUGGCGCCGGCUGGGCAAGAUUCCGAGGGGACCGUCCCCUCGGUUAUGGCGAAUGGGACCCA" and report it.
0.804

Output self-cleavage of "GGCCGGCAUGGUCCCAGCCACCUCGCCGGCGCCGGCUGGGCAACAUUCCGAGGGGACCGUCCCCUCGGUAAUGGCGAAUGGGACCCA"
0

Please indicate self-cleavage recorded for "GGGCGGCAUGGUCCCAGCCUCCCCGCUGGCGCCGGCUGGGCAACAUUCCGAGGGGACCGUCCCCUCGGUAAUGGCGAAUGGGACCCA"
0.48

Look up and report measured self-cleavage for this entry: "GGCCGGCAUGUUCCCAGCCUCCUCGCUGGCGCCGGCUGGGCAACAUUCCGAGGGGACCGUCCCCUCGGUAAUGGCGAAUCGGACCCA"
0

Give self-cleavage for "GGCCGGCAUGGUCCCAGCCUCCUCGCUGGCGCCUUCUGGGCAACAUUCCGAGGGGACCGUCCCCUCGGUAAUGGCGAAUGGGACCCA"
0.175

Consider the variant "GGCCGGCAUGGUCCCAGCCUCCUCGCUGUCGCCGGCUGGGCAACAUUCCGAGGGGACCGUCCCCUCGGUAAUGGCGAGUGGGACCCA" and give its recorded self-cleavage.
0.0378

Name the recorded self-cleavage of the variant listed here: "GGCCGGCAUGGUCCCAGCCUCCUCGCUGGCGCCGGCUGGGCAACAUUCCGAGGCGACCGUCACCUCGGUAAUGGCGAAUGGGACCCA"
0.967

Look up and report measured self-cleavage for this entry: "GGCCGGCAUGGUCCCAGCCUACUCGCUGGCGCCGGCUGGGCAACAUUCCGAGGGGACCGUCCCCUCGGUAAUGGCGAAUCGGACCCA"
0.0496

Return the recorded self-cleavage value; entry: "GGCCGGCAUGGUCCCAGCCUCCUCGCUGGCGCCGGCUGCGCAACAUUCCGAGGGGACAGUCCCCUCGGUAAUGGCGAAUGGGACCCA"
0.521

Tell me measured self-cleavage for "GGCUGGCAUGGUCCCAGCCUCCUCGCUGGCGCCGGCUGGGCUACAUUCCGAGGGGACCGUCCCCUCGGUAAUGGCGAAUGGGACCCA" please.
0.284

Return self-cleavage (reported value) for this variant: "GGCCGGCAUGGUCCCAGCCUCCUCGCAGGCGCCGGCUGGGCAACAUUCCGAGGGGACCGUCCCCUCGGUAAUGCCGAAUGGGACCCA"
0

Provide one value: measured self-cleavage of "GGCCGGCAUGGUCCCAGCCUCCUCGCUGGCGCCGGCUGGGCAACAUUCCGAGGGGACCGUCUCCUCGGUAAUUGCGAAUGGGACCCA"
0.472

Please report the measured self-cleavage for "GGCCGGCAUGGUCCCAGCCUCCUCGCUGGCGCCGGCUGGGCAACAUUCCGAGGGGACCGUCCCCUCGGUAAUGGCGAGUGGGCCCCA"
0.128

Indicate the recorded self-cleavage value for this variant: "GGCCGGCAUGGUCCCAGCCUCCUCGCAGGCGCCGGCUGGGCAACAUUCCGAGGGGACCGUCCCCUCGGUAAUGGCGAAUGGGACCCA"
0.916

Give reported self-cleavage value for "GGCCGGCAUGGUCCCAGCCUCCUCGCUGGCGCCGGCCGGGCAACAUUCCGAGGGGACCGUCCCCUCGGUAAUGGCGAAUGGGACCCG"
1.09

# return recorded self-cleavage for entry "GGCCGGCAUGGUCCCAGCCUCAUCGCUGGCGCCGGCUGGGCAACAUUCCGAGGGGACCGUCCCCUCCGUAAUGGCGAAUGGGACCCA"
0.337

Give reported self-cleavage value for "GGCCGGCAUGGUCCCAGCCUCCUCGCUGGCGCCGGCUGGGCAACAUUCCGAGGGGACUGUCCCCUCGGUAAUGGCGAAUGGGACCCC"
0.905

Let me know recorded self-cleavage for "GGGCGGCAUGGUCCCAGCCUCCUCGCUGGCGCCGGCUGGGCAACAUUCCGAGGGGACCGGCCCCUCGGUAAUGGCGAAUGGGACCCA" , thanks.
0.773
